Assay: in vitro
Conditions: human, hepatocytes
metric: half-life

molecule: COCCOCCOCCOCCOCCN(C)CCOC(c1ccccc1)c1ccccc1 [mPEG5-N-diphenhydramine]
half-life: 0.737 h

Now look at this entry.
The recorded half-life for entry COCCOCCOCCOCCOCCOCCOCCN(C)CCOC(c1ccccc1)c1ccccc1 [mPEG(7)-N-Diphenhydramine, mPEG7-N-diphenhydramine] equals 1.47 h
